# Assayed Target: hNPY2R (Homo sapiens, UniProt P49146)
# Construct: expressed in transfected cells; host or cells: HEK-293 cells carrying a CRE-luciferase reporter gene
# Sequence (P49146 1-381): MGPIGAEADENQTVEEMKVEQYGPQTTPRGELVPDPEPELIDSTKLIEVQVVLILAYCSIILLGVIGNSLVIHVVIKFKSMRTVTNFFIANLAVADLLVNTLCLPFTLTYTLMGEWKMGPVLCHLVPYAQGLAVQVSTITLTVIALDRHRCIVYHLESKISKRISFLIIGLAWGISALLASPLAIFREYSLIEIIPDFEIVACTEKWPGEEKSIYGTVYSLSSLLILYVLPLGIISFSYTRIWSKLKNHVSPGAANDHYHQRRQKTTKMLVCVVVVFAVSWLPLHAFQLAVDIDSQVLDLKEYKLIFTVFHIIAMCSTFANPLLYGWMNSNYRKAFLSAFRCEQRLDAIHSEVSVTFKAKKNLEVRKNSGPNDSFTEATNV
# Experiment Summary: hNPY2R CreLuc reporter gene assay in 0.5% and 100% plasma
# Type: cell-based
# Settings: CreLuc reporter gene assay, 0.5% human plasma; read-out: hNPY2R 0.5% hP
Starred links: 1 amine or outer side, 2 acyl side, 3 side chain; linkers in the order of their positions; H or OH if unused. Non-standard residues stand in square brackets, D forms with d. Groups on a side chain read outwards from the residue. No end group written: not given here. *: point of attachment. C20 diacid = O=C(O)CCCCCCCCCCCCCCCCCCC(=O)*; C18 diacid = O=C(O)CCCCCCCCCCCCCCCCC(=O)*; γGlu = O=C(O)[C@H](CCC(=O)[*:2])N[*:1]; εLys = N[C@@H](CCCCN[*:1])C(=O)[*:2]; AEEA = NCCOCCOCC(=O)O; Aib = CC(C)(N)C(=O)O; Ahx = NCCCCCC(=O)O
Reported Property: EC50 (nM)
Hi! Could you send only the number? It should be in nM, unit omitted.

IN: Can you share its EC50? I mean this substance: Y[Aib]EGTFTSDYSI[Aib]LEKQAQ[Aib]AFVQWLIK([Ahx-γGlu-γGlu-γGlu-γGlu-γGlu-γGlu-C18 diacid])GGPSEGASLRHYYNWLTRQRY-NH2 [Compound 245]
OUT: 24.5

IN: I'd like to know its EC50. The substance in question is H-Y[Aib]EGTFTSDYSI[Aib]LEKQAQ[Aib]AFVEWLIK([AEEA-AEEA-γGlu-γGlu-γGlu-γGlu-C20 diacid])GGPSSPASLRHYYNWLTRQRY-NH2 [Compound 175]
OUT: 10.5

IN: What measured EC50 goes with H-Y[Aib]EGTFTSDYSI[Aib]LEKQAQ[Aib]AFVEWLIK([εLys-γGlu-γGlu-γGlu-γGlu-γGlu-γGlu-C20 diacid])GGPSSYVSIRHYYNWLTRQRY-NH2 [Compound 9] ?
OUT: 15.2
